# EXPERIMENT: Cell Viability - Mesenchymal (AID 546);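 further: cells exposed to compound for 40 hours before reading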
# TEST_PARAMETERS: mesenchymal cells viability, qHTS; series mostly up to 91.7 µM
Records with an inconclusive call do not appear. Activity calls are given as the source filed them. The call rests on the fitted dose curve; in most records, active means well fitted cell-killing curve with a large enough effect; inconclusive means small, poorly fitted or top-dose-only effect; inactive means flat fitted curve, though single readings scatter.
Labels: t for active, f for inactive

1. Nc1cc(S(=O)(=O)O)ccc1O; f
2. CCCOCC(C)OCC(C)O (stereo not drawn); f
3. Cc1ccc(Br)cc1; f
4. CCNc1cc(O)ccc1C; f
5. Cc1cccc2cccnc12; f
6. CC(O)CC(C)O (stereo not drawn); f
7. CN(C)CCCCl; f
8. CC(=O)OCCC(C)C; f
9. O=C1OC(=O)c2c(Cl)c(Cl)c(Cl)c(Cl)c21; f
10. CC(=O)c1cccc([N+](=O)[O-])c1; f
11. CCCCC(CC)COCC1CO1 (stereo not drawn); f
12. Nc1cc(Cl)c([N+](=O)[O-])cc1O; f
13. O=C(O)CN(CC(=O)O)CC(=O)O; f
14. CCCCCO; f
15. CO[Si](CCCNCCC[Si](OC)(OC)OC)(OC)OC; f
16. CCCCCCCCC; f
17. CCC(O)C(C)(C)C (stereo not drawn); f
18. COc1ccc(N)c(C)c1; f
19. O=[N+]([O-])c1ccccc1CCO; f
20. Cc1cccc(C(=O)O)c1; f
21. Cc1ccc(C)c([N+](=O)[O-])c1; f
22. CCN(C(=O)N(CC)c1ccccc1)c1ccccc1; f
23. CCCOCC(C)O (stereo not drawn); f
24. Cc1ccccc1C(=O)O; f
25. Nc1c(Cl)cc(Cl)cc1Cl; f
26. CC(=O)c1ccccn1; f
27. Nc1ccc(Cl)cc1[N+](=O)[O-]; f
28. O=C1OC(=O)c2cc([N+](=O)[O-])ccc21; f
29. CC(C)(C)OCC1CO1 (stereo not drawn); f
30. Clc1ccc(Cl)c(Cl)c1Cl; f
31. FC(F)(F)c1cccc(Cl)c1; f
32. CCOc1ccccc1N; f
33. CCOC(=O)OCC; f
34. CC(O)COC(C)(C)C (stereo not drawn); f
35. CC1=C(/C=C/C(C)=C/C=C/C(C)=C\C=O)C(C)(C)CCC1; t
36. CCc1ccccc1O; f
37. O=C(O)c1cccc([N+](=O)[O-])c1; f
38. C=C(C)C(=O)OCC(C)C; f
